- targetOrSystem: T1, CD71 (Homo sapiens (Human), UniProt P02786 89-760)
- T1 construct: also called transferrin receptor; TfR1
- T1 sequence (P02786 89-760 limits assumed, form in doubt): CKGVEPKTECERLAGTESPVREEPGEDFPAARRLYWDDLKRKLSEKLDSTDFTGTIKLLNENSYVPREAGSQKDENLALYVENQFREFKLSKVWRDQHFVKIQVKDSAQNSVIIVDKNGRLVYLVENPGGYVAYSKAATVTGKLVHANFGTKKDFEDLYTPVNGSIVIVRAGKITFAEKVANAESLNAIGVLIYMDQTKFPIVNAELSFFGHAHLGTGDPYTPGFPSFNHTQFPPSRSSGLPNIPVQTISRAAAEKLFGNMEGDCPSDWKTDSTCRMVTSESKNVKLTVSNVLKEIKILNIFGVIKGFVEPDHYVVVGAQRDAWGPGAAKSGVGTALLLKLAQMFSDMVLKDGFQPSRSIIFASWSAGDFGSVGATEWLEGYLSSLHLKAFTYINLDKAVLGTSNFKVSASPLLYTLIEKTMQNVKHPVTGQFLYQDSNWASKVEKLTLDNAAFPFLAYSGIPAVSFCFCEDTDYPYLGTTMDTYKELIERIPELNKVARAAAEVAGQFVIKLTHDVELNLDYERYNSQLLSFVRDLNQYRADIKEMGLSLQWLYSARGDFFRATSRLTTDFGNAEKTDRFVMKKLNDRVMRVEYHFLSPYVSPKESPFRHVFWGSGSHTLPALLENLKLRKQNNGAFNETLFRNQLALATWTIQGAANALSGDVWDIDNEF
- test: SPR Biacore X100, conjugate duplexed to biotin-DNA on streptavidin chip, CD71 injected 6.25-100 nM, 1:1 fit
pKd: −log10 of the molar value. Starred links: 1 amine or outer side, 2 acyl side, 3 side chain; linkers in the order of their positions; H or OH if unused. Positions of bridges follow the written chain, without caps; N, C: chain ends. Non-standard residues stand in square brackets, D forms with d. *: point of attachment. azidopropyl = N-terminal modification AzPro, [N-]=[N+]=NCCC*; TATB = O=C(C[*:1])N1CN(C(=O)C[*:2])CN(C(=O)C[*:3])C1; oligonucleotide 1590463 = not defined here; Hyp = O=C(O)[C@@H]1C[C@@H](O)CN1
pKd below 8 gives label 0; pKd at or above it gives label 1.

Take a look at these entries with their results.
{oligonucleotide 1590463-BCN linker-azidopropyl}-CS[Hyp]DAHLGCISYC-NH2 (linker 1-9-13 via TATB; reading uncertain; also: printed as CS[HyP]DAHLGCISYC, also called Compound No. 1590463 conjugated to BCY17878) [1590463-BCY17878] : label 0
{oligonucleotide 1590463-BCN linker-azidopropyl}-CP[Hyp]DAYLGCISYC-NH2 (linker 1-9-13 via TATB; reading uncertain; also: printed as CP[HyP]DAYLGCISYC, also called Compound No. 1590463 conjugated to BCY17876) [1590463-BCY17876] : label 0

Now consider a different binder.
Req: For this binder, is measured pKd 8 or higher? CSPDAHLGCISYCX (not fully specified; as printed CSPDAHLGCISYC[K(N3)]: N-terminal acetyl; C-terminal amide; three Cys bound to TATB scaffold; [K(N3)] 6-azido lysine at 14 joined via BCN linker to oligonucleotide 1590463, also called Compound No. 1590463 conjugated to BCY17868) [1590463-BCY17868]
Resp: label 1
